Target: Tyrosyl-tRNA synthetase, putative (Trypanosoma cruzi (strain CL Brener)) (UniProt Q4DSP6)
Sequence (Q4DSP6 as listed by the source): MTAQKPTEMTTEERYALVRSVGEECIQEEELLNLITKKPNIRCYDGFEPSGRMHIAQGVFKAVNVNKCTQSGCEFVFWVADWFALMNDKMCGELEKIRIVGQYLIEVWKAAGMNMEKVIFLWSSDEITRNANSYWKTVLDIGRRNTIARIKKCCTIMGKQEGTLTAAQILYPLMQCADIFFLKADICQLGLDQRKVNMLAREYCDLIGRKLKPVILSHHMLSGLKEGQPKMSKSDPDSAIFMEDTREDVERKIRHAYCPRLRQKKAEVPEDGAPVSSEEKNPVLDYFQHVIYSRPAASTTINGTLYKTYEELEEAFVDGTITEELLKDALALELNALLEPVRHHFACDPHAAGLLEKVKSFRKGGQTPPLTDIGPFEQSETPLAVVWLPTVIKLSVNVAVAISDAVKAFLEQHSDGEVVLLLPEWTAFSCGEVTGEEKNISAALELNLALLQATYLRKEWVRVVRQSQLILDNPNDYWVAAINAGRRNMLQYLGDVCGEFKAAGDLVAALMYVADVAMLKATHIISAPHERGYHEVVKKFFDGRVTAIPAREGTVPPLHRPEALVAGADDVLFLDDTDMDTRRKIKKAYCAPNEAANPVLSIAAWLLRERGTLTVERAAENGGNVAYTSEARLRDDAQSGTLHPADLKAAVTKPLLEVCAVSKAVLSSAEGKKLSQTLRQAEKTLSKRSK
Assay: Trypanosoma cruzi tyrosyl tRNA synthetase (TcYRS) SOP
Type: functional
Set-up: scale not given: direction of the effect not stated beside the values
Details: 30 µM
Here the recorded Percent Effect is given for each entry.
State the answer as a number, implicitly in %.

Study these solved cases before continuing.
CC(C)(C)C(O)CN1CCN(C(=O)c2cccc3ncccc23)CC1 (stereo not given) | 10.8
CNc1nc2c(s1)C(=O)CN(C(=O)NCc1ccccc1)C2 | 2.56

For the molecule Cc1ccc(-c2nc(CNCC3CN(C)CCO3)cs2)o1 (stereo not given) , what Percent Effect is on record?
21.2

Can you share its Percent Effect? I mean this molecule: "COc1ncccc1CNC(=O)c1cccc(C)n1"
22.9

// lookup Percent Effect for O=C1CC(c2ccco2)c2sc(C(=O)O)c(-c3ccccc3)c2N1 (stereo not given)
17.1

Would you kindly share the measured Percent Effect for Cc1ccoc1-c1nnc(CN2CCCC(Cn3cncn3)C2)o1 (stereo not given) ?
1.21

Fill blank: measured Percent Effect of the molecule "CC(C)CN1CCC2(CCN(Cc3ccoc3)CC2)C1=O" is ____.
12.5

Reported Percent Effect, molecule "Cc1nc(CN2CCO[C@@H]3CN(C(=O)NC(C)C)CC[C@@H]3C2)cs1" : ____
7.69

Form field: reported Percent Effect of CCc1nc(CC(=O)N2CCCC2Cn2cccn2)cs1 (stereo not given)
7.69

# query: Percent Effect of entry "O=C(Cn1cc(-c2ccccc2)ncc1=O)Nc1ccncc1"
17.1

----------
Molecular target: AMP-activated protein kinase, AMPK (Homo sapiens) (UniProt P54646+O43741+P54619+Q9UGJ0+Q9Y478+Q13131+Q9UGI9)
Experiment: AMP-dependent Kinase enzyme assay. An in vitro enzyme assay that detects ADP turnover that is directly proportional to AMPK activity. This uses naive AMPK that is activated during the assay with MK-8722
Type: functional
Set-up: scale not given: direction of the effect not stated beside the values
Settings: 30 µM
Measured Percent Effect values are reported for all entries that follow.
Your answer is read as %, so omit the unit and give the number.

Solved cases (2 shown):
Nc1nc2c(c(NCc3nccs3)n1)CCN(CC1CCCC1)CC2 | 1.23
Cc1nc(N)cc(C2(C)CCCNC2)n1 (stereo not given) | 14.2

Request the reported Percent Effect associated with "CC(C)c1ccccc1OCCNC(=O)N1CCC(CC(N)=O)CC1"
-3.47

Quick one: Percent Effect of CNC(=O)c1sc2ncccc2c1C1CCN(C(=O)CCOC)C1 (stereo not given) ?
21.5

----------
Biological target: Sialic acid-binding Ig-like lectin 9 (Homo sapiens) (UniProt Q9Y336)
Sequence (Q9Y336 whole entry): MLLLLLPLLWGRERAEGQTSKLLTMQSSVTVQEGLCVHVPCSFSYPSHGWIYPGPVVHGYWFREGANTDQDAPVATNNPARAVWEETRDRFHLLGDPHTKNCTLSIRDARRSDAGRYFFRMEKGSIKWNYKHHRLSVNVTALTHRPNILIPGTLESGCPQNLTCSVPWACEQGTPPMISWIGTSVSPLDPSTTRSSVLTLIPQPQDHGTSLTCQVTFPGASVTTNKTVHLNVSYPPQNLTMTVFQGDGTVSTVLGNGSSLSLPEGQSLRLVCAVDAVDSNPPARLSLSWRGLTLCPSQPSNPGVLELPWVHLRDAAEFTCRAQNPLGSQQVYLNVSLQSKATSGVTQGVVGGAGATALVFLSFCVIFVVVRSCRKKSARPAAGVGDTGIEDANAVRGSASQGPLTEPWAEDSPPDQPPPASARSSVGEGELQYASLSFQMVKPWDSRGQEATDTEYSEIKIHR
Assay: Hs-Siglec9 ALPHAscreen SOP 20170721
Parameters: scale not given: direction of the effect not stated beside the values
Conditions: 10 µM
metric_name: Percent Effect
Answer shape: numeric part, then the unit.

COCC1CN(Cc2ccc(OC)cc2)Cc2nn(C)cc21 (stereo unspecified) | -1.55%

Which measured Percent Effect belongs to COCCc1noc(CN2CCCCC2Cn2nc(C)cc2C)n1 (stereo unspecified) , tested on Sialic acid-binding Ig-like lectin 9 (Homo sapiens) (UniProt Q9Y336)?
13.8%

Find the measured Percent Effect: item CCn1ccnc1CN(C)CC1CCCN1c1cccnn1 (stereo unspecified) , target or system Sialic acid-binding Ig-like lectin 9 (Homo sapiens) (UniProt Q9Y336).
-5.89%

Record lookup: for Sialic acid-binding Ig-like lectin 9 (Homo sapiens) (UniProt Q9Y336), what Percent Effect belongs to Cc1cc(C)n(CC2CCCN2CCS(=O)(=O)c2ccccc2)n1 (stereo unspecified) ?
-1.27%

// map "Cc1cc(C)cc(OCC(=O)NC2CCN(S(C)(=O)=O)CC2)c1" to recorded Percent Effect (system: Sialic acid-binding Ig-like lectin 9 (Homo sapiens) (UniProt Q9Y336))
-6.89%

Recall the recorded Percent Effect for "O=C(Cn1c(=O)nc2n1C(=O)N(c1ccccc1)C2)Nc1ccccc1" with Sialic acid-binding Ig-like lectin 9 (Homo sapiens) (UniProt Q9Y336) and state it.
9.15%

Tell me reported Percent Effect for "Cc1ccc(CN2CCCn3c(nc(CN4CCCC4)cc3=O)C2)s1" , tested with Sialic acid-binding Ig-like lectin 9 (Homo sapiens) (UniProt Q9Y336).
-1.12%

Short answer please: Percent Effect, Sialic acid-binding Ig-like lectin 9 (Homo sapiens) (UniProt Q9Y336), entry c1cnnc(N2CCCC2CNCc2nc(C3CC3)no2)c1 (stereo unspecified)
1.93%
